Source of measurements: paper PMC7018746

Consider the following molecules and their measured IC50 readings.
target: α-glucosidase (Saccharomyces cerevisiae, EC.3.2.1.20) (Saccharomyces cerevisiae); construct: purchased Sigma-Aldrich; experiment: biochemical; format: biochemical; settings: Table 2, compounds 3aa-ai; mean ± SD, at least three experiments; read-out: IC50 (µM), in vitro α-glucosidase inhibitory activity
Sequence (P53341 whole entry): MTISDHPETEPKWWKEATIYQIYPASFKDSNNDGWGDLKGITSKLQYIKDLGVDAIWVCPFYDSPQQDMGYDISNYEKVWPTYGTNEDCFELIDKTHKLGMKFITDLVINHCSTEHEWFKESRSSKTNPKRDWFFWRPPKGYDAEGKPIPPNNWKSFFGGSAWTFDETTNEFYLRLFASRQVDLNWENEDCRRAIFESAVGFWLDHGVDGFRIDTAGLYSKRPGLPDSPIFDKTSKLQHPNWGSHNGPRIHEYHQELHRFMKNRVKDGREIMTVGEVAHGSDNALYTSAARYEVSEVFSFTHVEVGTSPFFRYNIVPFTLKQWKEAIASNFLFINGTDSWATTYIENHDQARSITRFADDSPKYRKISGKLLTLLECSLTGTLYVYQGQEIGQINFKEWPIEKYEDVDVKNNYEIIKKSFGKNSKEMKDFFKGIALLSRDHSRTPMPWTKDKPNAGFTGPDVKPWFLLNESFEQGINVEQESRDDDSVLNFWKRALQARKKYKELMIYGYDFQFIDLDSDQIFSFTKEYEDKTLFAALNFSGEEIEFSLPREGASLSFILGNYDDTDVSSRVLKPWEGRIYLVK
Provide only the numeric value, understood in µM.

Worked examples follow.
[[record]]
molecule = "CCOC(=O)c1c(-c2ccccc2)nn2c(-c3ccc(Cl)cc3)c(N)c(-c3ccc(OC)cc3)nc12 [3af]"
unitstext = "µM"
measvalue = 65.5

[[record]]
molecule = "CCOC(=O)c1c(-c2ccccc2)nn2c(-c3ccc(Cl)cc3)c(N)c(-c3ccc(Cl)cc3)nc12 [3ah]"
unitstext = "µM"
measvalue = 162

[[record]]
molecule = "CCOC(=O)c1c(-c2ccccc2)nn2c(-c3ccc(Cl)cc3)c(N)c(-c3ccccc3)nc12 [3aa]"
unitstext = "µM"
measvalue = 94

[[record]]
molecule = "CCOC(=O)c1c(-c2ccccc2)nn2c(-c3cccs3)c(N)c(-c3ccc(Cl)cc3)nc12 [3ai]"
unitstext = "µM"
measvalue = 153

[[record]]
molecule = "CCOC(=O)c1c(-c2ccccc2)nn2c(-c3ccc(Cl)cc3)c(N)c(-c3ccc(C)cc3)nc12 [3ac]"
unitstext = "µM"
measvalue = 185

[[record]]
molecule = "CCOC(=O)c1c(-c2ccccc2)nn2c(-c3ccc(Br)cc3)c(N)c(-c3ccc(C)cc3)nc12 [3ad]"
unitstext = "µM"
measvalue = 141

[[record]]
molecule = "CCOC(=O)c1c(-c2ccccc2)nn2c(-c3ccc(Br)cc3)c(N)c(-c3ccccc3)nc12 [3ab]"
unitstext = "µM"
measvalue = 150

[[record]]
molecule = "CCOC(=O)c1c(-c2ccccc2)nn2c(-c3ccccc3)c(N)c(-c3ccc(OC)cc3)nc12 [3ae]"
unitstext = "µM"
measvalue = 116


**Q:** State measured IC50 of the molecule CCOC(=O)c1c(-c2ccccc2)nn2c(-c3ccccc3)c(N)c(-c3ccc(Cl)cc3)nc12 [3ag] with α-glucosidase (Saccharomyces cerevisiae, EC.3.2.1.20) (Saccharomyces cerevisiae).
**A:** 201
